TEST_TARGET: Stp1 (UniProt B3LFK1)
Sequence: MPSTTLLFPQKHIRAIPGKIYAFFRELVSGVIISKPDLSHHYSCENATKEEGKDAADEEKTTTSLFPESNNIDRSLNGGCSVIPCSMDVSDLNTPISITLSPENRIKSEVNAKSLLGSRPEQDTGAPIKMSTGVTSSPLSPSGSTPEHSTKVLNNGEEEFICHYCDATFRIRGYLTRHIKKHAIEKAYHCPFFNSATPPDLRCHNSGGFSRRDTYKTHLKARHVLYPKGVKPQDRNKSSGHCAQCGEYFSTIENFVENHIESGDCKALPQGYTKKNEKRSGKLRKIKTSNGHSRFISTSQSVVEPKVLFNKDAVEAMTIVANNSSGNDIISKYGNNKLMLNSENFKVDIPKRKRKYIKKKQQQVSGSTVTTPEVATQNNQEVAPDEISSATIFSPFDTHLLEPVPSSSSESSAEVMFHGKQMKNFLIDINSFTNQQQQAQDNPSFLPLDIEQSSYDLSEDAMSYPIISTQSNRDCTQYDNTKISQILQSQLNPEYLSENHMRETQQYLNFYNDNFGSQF
ASSAY_NAME: PBM E-score (8-mer binding enrichment) (E-score (-0.5 to 0.5)); higher = stronger / more preferred TF binding
STATED_CONDITIONS: protein concentration: 200 nM; construct: GST-full length
Over roughly 33,000 sequences, “E-score (-0.5 to 0.5)” has its median near -0.016; the highest 2% begin near 0.32. What follows is part of a selection rich in the highest values, with near analogues and random picks from the rest.
VALUE_TYPE: PBM E-score
Give bare numbers.

Here is how some sequences turned out for PBM E-score.
CGCCTTCC
0.206
CTGCCGAA
0.127
AAGGCAAC
0.274
GGAGTCAC
-0.236
ATAGTGAG
-0.0378

Batch request: PBM E-score for each of the following sequences.
1. ACGGCAGC
2. CATAATGC

[0.406, 0.0509]

----------
TEST_TARGET: Stp1 (UniProt B3LFK1)
Sequence: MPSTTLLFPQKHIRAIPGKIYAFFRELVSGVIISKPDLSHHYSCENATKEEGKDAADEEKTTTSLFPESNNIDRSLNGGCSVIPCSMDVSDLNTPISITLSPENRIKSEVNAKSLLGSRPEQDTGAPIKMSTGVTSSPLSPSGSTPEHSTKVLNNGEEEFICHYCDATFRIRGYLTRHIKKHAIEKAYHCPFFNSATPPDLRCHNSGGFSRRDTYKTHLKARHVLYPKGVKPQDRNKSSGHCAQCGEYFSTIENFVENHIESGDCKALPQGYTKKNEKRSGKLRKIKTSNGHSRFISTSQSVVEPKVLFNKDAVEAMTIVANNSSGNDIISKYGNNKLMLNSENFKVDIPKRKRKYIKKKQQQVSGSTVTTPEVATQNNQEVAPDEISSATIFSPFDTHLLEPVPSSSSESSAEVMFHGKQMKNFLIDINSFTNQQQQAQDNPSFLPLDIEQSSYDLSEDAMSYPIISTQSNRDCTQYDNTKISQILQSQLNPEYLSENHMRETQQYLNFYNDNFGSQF
ASSAY_NAME: PBM E-score (8-mer binding enrichment) (E-score (-0.5 to 0.5)); higher = stronger / more preferred TF binding
STATED_CONDITIONS: protein concentration: 200 nM; construct: GST-full length
The full ranking holds about 33,000 sequences; the median of “E-score (-0.5 to 0.5)” is about -0.016, and the highest 2% start at about 0.32. The entries come from a sample that favours the highest values as a whole.
VALUE_TYPE: PBM E-score
One number for each entry.

CTGTGCGA
-0.0295

Each of the following entries comes with a recorded value; kindly state PBM E-score for each.
1. CACGCCTC
2. ATGACGCC
3. ATGGCGCG

[0.205, 0.2, 0.196]

Report PBM E-score for `AGCGCCTG` tested on Stp1 (UniProt B3LFK1).
-0.0292
